- method description: DPPH scavenging antioxidant assay
- settings: 100 µg ml^−1
- Experimental: The derivatives (C18–C27) were assessed for their antioxidant potential in the presence of the stable free radical DPPH using ascorbic acid as the standard compound [36, 37]. […] After 30 min of incubation, the plate was kept in ELISA reader to measure the absorbance values at 517 nm. […] The antioxidant activity of each sample was then calculated as per cent inhibition of DPPH according to the following equation: %decolourationofDPPH=ControlAbs-SampleAbs×100/ControlAbs
Everything with % inhibition of DPPH lower than 60% is 0.0; everything else, including exactly 60%, is 1.0.

compound: O=C(/C=C\c1ccc(Cl)cc1Cl)c1cccc(N=Nc2cccc(Cl)c2Cl)c1O
class: 0.0
//
compound: O=Cc1ccc(/C=C\C(=O)c2cccc(N=Nc3cccc(Cl)c3Cl)c2O)cc1
class: 0.0
//
compound: CC(=O)c1ccc(N=Nc2c(O)cccc2O)cc1
class: 0.0
//
compound: O=Cc1ccc(/C=C\C(=O)c2ccc(N=Nc3c(O)cccc3O)cc2)cc1
class: 1.0
//
compound: O=C(/C=C\c1ccccc1[N+](=O)[O-])c1cccc(N=Nc2cccc(Cl)c2Cl)c1O
class: 0.0
